target: PKG (Plasmodium falciparum, UniProt Q8I719); experiment: PKG IC50 (supplementary data file of hits); assay type: biochemical
Sequence (Q8I719 whole entry): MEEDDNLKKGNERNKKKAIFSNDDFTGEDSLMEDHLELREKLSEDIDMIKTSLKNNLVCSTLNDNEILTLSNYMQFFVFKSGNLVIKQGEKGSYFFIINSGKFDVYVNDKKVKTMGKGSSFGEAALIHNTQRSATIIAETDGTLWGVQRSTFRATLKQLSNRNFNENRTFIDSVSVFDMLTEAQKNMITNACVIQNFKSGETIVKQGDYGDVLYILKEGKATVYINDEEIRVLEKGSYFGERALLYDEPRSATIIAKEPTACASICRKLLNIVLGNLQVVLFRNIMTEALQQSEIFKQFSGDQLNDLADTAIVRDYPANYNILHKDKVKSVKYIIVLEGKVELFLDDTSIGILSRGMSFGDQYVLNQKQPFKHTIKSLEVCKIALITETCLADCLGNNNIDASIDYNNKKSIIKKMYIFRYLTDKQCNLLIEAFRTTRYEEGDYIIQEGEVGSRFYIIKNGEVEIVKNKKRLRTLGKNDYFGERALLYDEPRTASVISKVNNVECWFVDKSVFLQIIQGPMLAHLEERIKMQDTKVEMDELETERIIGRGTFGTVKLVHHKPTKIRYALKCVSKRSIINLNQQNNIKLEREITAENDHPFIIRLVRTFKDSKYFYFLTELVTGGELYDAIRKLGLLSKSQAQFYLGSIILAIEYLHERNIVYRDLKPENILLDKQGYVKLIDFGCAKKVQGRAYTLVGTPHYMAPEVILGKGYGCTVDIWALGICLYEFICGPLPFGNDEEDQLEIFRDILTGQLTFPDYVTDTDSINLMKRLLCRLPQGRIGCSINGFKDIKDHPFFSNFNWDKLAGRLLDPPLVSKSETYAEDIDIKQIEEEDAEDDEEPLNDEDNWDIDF
measurement_name: IC50

Request: Look up IC50 with PKG (Plasmodium falciparum, UniProt Q8I719) for this molecule: `COCCOc1ccc(Nc2nccc(-c3c(-c4cccc(NC(=O)c5c(F)cccc5F)c4)nn4ccccc34)n2)cc1Cl`
Result: > 10 µM

Request: Look up IC50 with PKG (Plasmodium falciparum, UniProt Q8I719) for this molecule: `Cn1cccc1C(=O)Nc1cccc(-c2nn3ccccc3c2-c2ccnc(Nc3ccc4c(c3)OCCO4)n2)c1`
Result: > 10 µM

Request: Look up IC50 with PKG (Plasmodium falciparum, UniProt Q8I719) for this molecule: `O=C(Nc1cccc(-c2nn3ncccc3c2-c2ccnc(Nc3ccccc3)n2)c1)c1c(F)cccc1F`
Result: > 10 µM

====

biological target: Plasmodium falciparum calcium-dependent protein kinase 1 (CDPK1) (Plasmodium falciparum); construct: 6-Histidine (N); made in house; assay: CDPK1 Kinase-Glo ATP-consumption screen and dose-response; assay type: biochemical; conditions: hits below 1 uM; read-out: CDPK1 IC50
measurement_name: pIC50
The scale used: pIC50 is minus the common logarithm of the concentration in molar units.

Observe how each entry below is paired with its result.
compound | pIC50
CC(C)(CNCc1ccc(C(F)(F)F)cc1)c1nc(-c2ccnc(N)n2)c(-c2ccc(Cl)c(O)c2)[nH]1.Cl [TCMDC-141162] | 6.45
CN(C)CCOc1ccc(-c2cc(-c3ccc(Cl)c(O)c3)c(-c3ccnc(N)n3)o2)cc1 [TCMDC-141332] | 6.77
O=C(NCCCN1CCCCC1)c1cccc(Nc2nccc(Nc3ccc(Oc4ccccc4)cc3)n2)c1 [TCMDC-138605] | 6.61
CN(C)CCN(C)Cc1ccc(-c2ccc3c(Nc4ccc(Oc5ccccc5)cc4)ccnc3c2)o1 [TCMDC-138400] | 6.14
COc1ccc(C(=O)NCC(C)(C)c2nc(-c3ccc(Cl)c(O)c3)c(-c3ccncc3)[nH]2)cc1OCCN(C(C)C)C(C)C.Cl [TCMDC-140736] | 6.41

Request: Returns the measured pIC50 for the input compound. Input: CN(C)CCN(C)Cc1ccc(-c2ccc3c(Nc4ccc(Cl)cc4F)ccnc3c2)o1 [TCMDC-138388]
Result: 6.22

Request: Returns the measured pIC50 for the input compound. Input: CC(c1cccc(Nc2nccc(-c3c(-c4cccc(NC(=O)c5c(F)cccc5F)c4)nn4ncccc34)n2)c1)S(C)(=O)=O (stereo not shown) [TCMDC-135696]
Result: 7.02

Request: Returns the measured pIC50 for the input compound. Input: CS(=O)(=O)Cc1ccc(Nc2nccc(-c3c(-c4cccc(NC(=O)c5c(F)cccc5F)c4)nn4ncccc34)n2)cc1 [TCMDC-135681]
Result: 7.96

====

target: Plasmodium falciparum calcium-dependent protein kinase 1 (CDPK1) (Plasmodium falciparum); construct: 6-Histidine (N); made in house; experiment: CDPK1 Kinase-Glo ATP-consumption screen and dose-response; type: biochemical; settings: hits below 1 uM; read-out: CDPK1 IC50
measurement_name: IC50 (nM)
Note: unit nM is implicit; provide only the numeric part.

Observe how each entry below is paired with its result.
compound_structure_string | unit_abbrev | IC50
COCCNCc1ncsc1-c1ccc2c(Nc3cc(O)c(Cl)cc3F)ccnc2c1 | nM | 150
CCCN1CCN(CCNC(=O)c2cccc(Nc3nccc(Nc4ccc(Oc5ccccc5)cc4)n3)c2)CC1 | nM | 336
O=C(NCCN1CCCC1)c1cccc(Nc2nccc(Nc3ccc(Oc4ccccc4)cc3)n2)c1 | nM | 213
NS(=O)(=O)c1cccc(Nc2nc(N[C@@H]3CCNC3)nc3cc[nH]c(=O)c23)c1.O=C(O)C(F)(F)F | nM | 83
Nc1ncc(-c2cn[nH]c2)cc1-c1nc2cc(Cl)cnc2[nH]1 | nM | 280
NCCNS(=O)(=O)c1ccc(-c2ccnc3[nH]c(-c4ccncc4)cc23)cc1.O=C(O)C(F)(F)F | nM | 422
Cc1cccc(Nc2nc(NCCCCN)nc3cc[nH]c(=O)c23)c1.O=C(O)C(F)(F)F | nM | 566
CS(=O)(=O)Nc1cccc(-c2cnc3[nH]cc(-c4cccc(CN)c4)c3c2)c1 | nM | 387

Pending compound:
Request: Returns the measured IC50 for the input compound. Input: `Cl.NC[C@H](CC1CCCCC1)NC(=O)c1ccc(-c2ccnc3[nH]ccc23)s1`
Result: 492

====

molecular target: Plasmodium falciparum calcium-dependent protein kinase 1 (CDPK1) (Plasmodium falciparum, UniProt P62344); construct: 6-Histidine (N); made in house; experiment: CDPK1 Kinase-Glo ATP-consumption screen and dose-response; assay type: biochemical; conditions: hits below 1 uM; read-out: CDPK1 IC50
Sequence (P62344 whole entry): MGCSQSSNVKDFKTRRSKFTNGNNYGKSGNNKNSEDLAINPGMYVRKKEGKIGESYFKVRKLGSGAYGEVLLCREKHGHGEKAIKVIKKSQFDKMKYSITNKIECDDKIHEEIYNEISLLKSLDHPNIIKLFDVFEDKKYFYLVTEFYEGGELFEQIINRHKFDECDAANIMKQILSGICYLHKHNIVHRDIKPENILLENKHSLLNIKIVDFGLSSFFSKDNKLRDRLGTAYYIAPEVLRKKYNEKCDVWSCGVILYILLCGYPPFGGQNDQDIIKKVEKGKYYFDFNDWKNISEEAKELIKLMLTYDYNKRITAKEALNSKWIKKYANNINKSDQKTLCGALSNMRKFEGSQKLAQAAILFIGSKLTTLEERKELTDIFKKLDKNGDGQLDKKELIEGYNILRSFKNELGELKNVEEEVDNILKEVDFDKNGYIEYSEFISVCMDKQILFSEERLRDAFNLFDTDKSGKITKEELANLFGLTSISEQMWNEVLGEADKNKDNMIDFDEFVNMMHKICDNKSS
Sorting guide: entries reporting IC50 beneath 400 nM go in the yes (1) pile, the rest go in the no (0) pile.

Here are 8 molecules together with their reported answers.
compound_structure_string | assigned_class
Cl.NCc1ccc(Nc2nccc(Nc3ccc(-c4ccccc4)cc3)n2)cc1 | yes (1)
O=C(Nc1cccc(-c2nn3ccccc3c2-c2ccnc(Nc3cccc(-c4cnco4)c3)n2)c1)C1CCCCC1 | yes (1)
NCCCNc1nc(Nc2cccc(C(N)=O)c2)c2c(=O)[nH]ccc2n1.O=C(O)C(F)(F)F | no (0)
CN(C)CCNCc1ccc(-c2ccc3c(Nc4ccc(Oc5ccccc5)cc4)ccnc3c2)o1 | no (0)
CN(C)CCOc1ccc(-c2cc(-c3ccnc(N)n3)c(-c3ccc(Cl)c(O)c3)o2)cc1 | no (0)
O=C(Nc1cccc(-c2nn3ccccc3c2-c2ccnc(Nc3ccc(NCCCN4CCOCC4)c(F)c3)n2)c1)c1c(F)cccc1F | yes (1)
Cc1nc(-c2cccc(Nc3ccnc4cc(-c5nccs5)ccc34)c2)no1.Cl | yes (1)
O=C(NCCN1CCC(c2ccncc2)CC1)c1cccc(Nc2nccc(Nc3ccc(Oc4ccccc4)cc3)n2)c1 | yes (1)

Request: Please state whether IC50 is below 400 nM for `NS(=O)(=O)c1cccc(Nc2nccc(-c3c(-c4cccc(NC(=O)c5c(F)cccc5F)c4)nn4ccccc34)n2)c1`
Result: yes (1)

Request: Please state whether IC50 is below 400 nM for `CS(=O)(=O)Cc1ccc(Nc2nccc(-c3c(-c4cccc(NC(=O)C5CCCCC5)c4)nn4ncccc34)n2)cc1`
Result: yes (1)

Request: Please state whether IC50 is below 400 nM for `CC(C)(CNCCOc1ccc(Cl)cc1)c1nc(-c2ccnc(N)n2)c(-c2ccc(Cl)c(O)c2)[nH]1.Cl`
Result: no (0)

====

target: Plasmodium falciparum calcium-dependent protein kinase 1 (CDPK1) (Plasmodium falciparum, UniProt P62344); construct: 6-Histidine (N); made in house; assay: CDPK1 Kinase-Glo ATP-consumption screen and dose-response; type: biochemical; conditions: hits below 1 uM; read-out: CDPK1 IC50
pIC50: −log10 of the molar value.
Assign met whenever pIC50 does not fall below 7; assign not met whenever it does.

Here are 4 compounds together with their reported answers.
compound_structure_string | assigned_class
CN1CCC=C(C(=O)NCC(C)(C)c2nc(-c3ccc(Cl)c(O)c3)c(-c3ccncc3)[nH]2)C1.Cl | not met
CN(C)CCNCc1cccc(-c2ccc3c(Nc4ccc(Oc5ccccn5)cc4)ccnc3c2)c1 | not met
Cc1cccc(Nc2nc(N[C@@H]3CCCNC3)nc3cc[nH]c(=O)c23)c1.O=C(O)C(F)(F)F | met
Cc1ccc(Nc2nccc(Nc3ccc4c(c3)nc(Nc3cc(C(C)(C)C)on3)n4C)n2)cc1S(C)(=O)=O | not met

Request: Does pIC50 meet or surpass 7 for `Oc1cc(Nc2ccnc3cc(I)ccc23)c(F)cc1Cl` ?
Result: not met

Request: Does pIC50 meet or surpass 7 for `CCn1c(-c2nonc2N)nc2c(-c3ccccc3)ncc(OCCCNCCCN3CCOCC3)c21.O=C(O)C(F)(F)F` ?
Result: met

====

target: Plasmodium falciparum calcium-dependent protein kinase 1 (CDPK1) (Plasmodium falciparum); construct: 6-Histidine (N); made in house; assay: CDPK1 Kinase-Glo ATP-consumption screen and dose-response; type: biochemical; settings: hits below 1 uM; read-out: CDPK1 IC50
Catalogue of molecules with associated IC50
Note: unit µM is implicit; provide only the numeric part.

Observe how each entry below is paired with its result.
compound_structure_string | IC50 (µM)
CS(=O)(=O)Cc1ccc(Nc2nccc(-c3c(-c4cccc(C(=O)Nc5c(F)cccc5F)c4)nn4ccccc34)n2)cc1 | 0.05
COc1ccc(Nc2ncc(C#N)c(Nc3ccccc3C(N)=O)n2)cc1N1CCN(C)CC1.Cl | 0.089
O=C(NCCCN1CCOCC1)c1cccc(Nc2nccc(Nc3ccc(Oc4ccccc4)cc3)n2)c1 | 0.18
Cc1ccc(Nc2nccc(N(C)c3ccc4c(c3)nc(NC(=O)Cc3ccc(Cl)c(Cl)c3)n4C)n2)cc1S(N)(=O)=O.O=C(O)C(F)(F)F | 0.345

Pending molecule:
Request: Look up IC50 with Plasmodium falciparum calcium-dependent protein kinase 1 (CDPK1) (Plasmodium falciparum) for this molecule: `CCn1c(-c2nonc2N)nc2c(-c3cccc(NC(=O)Nc4ccc(Cl)cc4)c3)ncc(OCCCN)c21.O=C(O)C(F)(F)F`
Result: 0.044
